Test system: HS 578T breast
ASSAY COMMENT: NCI-60 one-dose screen, 48 h
CONDITIONS USED: 10 µM unless noted
About 83,000 compounds went through this panel and 20% of them were active in at least one assay; those are over-represented in the sample as a whole. The source made the active and inactive calls. The calls were made as follows: active = growth percent below 10; inactive = the rest.
Outcome field: choose from label 1 for active, label 0 for inactive

Problem: Hi, do you know how COc1cc2nc(Nc3cccc(F)c3)nc(Nc3cc(C)[nH]n3)c2cc1OC came out in this test?
Solution: label 1

Problem: Which outcome did this test record for the molecule Cc1nn(-c2ccccc2)c(/N=C/N(C)C)c1/C=C/C(=O)c1ccc(Cl)cc1 ?
Solution: label 0

Problem: Check the results log: what was the call for Oc1c(I)cc(-c2nc3ccccc3s2)cc1CN(Cc1ccccn1)Cc1ccccn1 ?
Solution: label 0

Problem: Can you look up the reported call for Cc1ccc(-c2nc(C(Cl)Cl)nc3cc(C)nn23)cc1 for me?
Solution: label 1

Problem: How was N#Cc1nc2c(S(=O)(=O)c3ccccc3)c(N)n(Cc3cccnc3)c2nc1C#N classified in this test?
Solution: label 0

Problem: Which outcome was entered for the molecule NS(=O)(=O)c1ccc(N/C=C/C(=O)c2cc3ccccc3oc2=O)cc1 in this test?
Solution: label 0

Problem: Write down the call the test reported for this molecule. Item: Brc1ccc(-c2cnc3nonc3n2)cc1
Solution: label 0

Problem: Just curious, what result did O=C1Nc2ccccc2/C1=C/c1cn(C[C@@H](O)Cn2c3ccccc3c(=O)c3ccccc32)c2ccccc12 get here?
Solution: label 0

Problem: Hi, do you know how Cn1cc(-c2ccc3cc(-c4ccc(CC(=O)Nc5cc(C(C)(C)C)on5)cc4)cnc3c2)cn1 came out in this test?
Solution: label 1

Problem: Answer briefly: the call reported for C#CCOc1ccc2ncnc(Nc3cccc(NC(=O)CCl)c3)c2c1 in this assay.
Solution: label 0

Problem: Record lookup: outcome of this test for CCCn1c(=S)sc2c1nc(C)n1c(Nc3ccccc3)nnc21 ?
Solution: label 0

Problem: Which result was noted for this molecule in the test: NC(=O)OCCn1cc(-c2nc(-c3c[nH]c4ncccc34)cs2)c2ccccc21
Solution: label 0

Problem: Hi, sorry to bother you, what did the test record for NC(CSC(c1ccccc1)(c1ccccc1)c1ccc2c(c1)OCO2)C(=O)O (configuration not stated) ?
Solution: label 0

Problem: Call for entry Cc1ccc(C)c2c1C(O)(C#Cc1ccccc1)c1ccccc1C2(O)C#Cc1ccccc1 (configuration not stated) :
Solution: label 0

Problem: Please state the recorded outcome for this molecule: CC1=C(C(=O)n2c3ccccc3c3ccccc32)C(c2cccc([N+](=O)[O-])c2)C(C(=O)n2c3ccccc3c3ccccc32)=C(C)N1
Solution: label 0

Problem: Recorded test outcome, item CCCCCCCCn1ccc2cc(NC(=O)Cn3cc(CN4CCC(C)CC4)nn3)ccc21
Solution: label 0

Problem: Record lookup: outcome of this test for COC(=O)c1c2c(n3ccc(C)cc13)C(=O)c1ccccc1C2=O ?
Solution: label 0
